biological target: T1, HLA-A*0201 molecule expressed on human tumor cell line T2 (human); experiment: T2 cell HLA-A2 stabilisation, FACS; peptide at 6.25 µM
T1 construct: surface HLA-A2 read with anti-HLA-A2 antibody BB7.2-PE by FACS; also called HLA-A2

# binder, mean relative fluorescence intensity
records = [
    ("FLPFGFILV (also called candidate peptide) [IL13RA2-B]", "40.8 relative (HIV peptide = 100)"),
    ("RVSSYLVPI [FOXM1-H]", "0 relative (HIV peptide = 100)"),
    ("RLSSYLVEI [FOXM1-B]", "0 relative (HIV peptide = 100)"),
    ("FMLGEFLKL [BIRC5-B1]", "36.1 relative (HIV peptide = 100)"),
    ("LTLGEFLKL [BIRC5-H]", "10.8 relative (HIV peptide = 100)"),
    ("YTLGEFLYI [BIRC5-B2]", "9 relative (HIV peptide = 100)"),
    ("LMDLSTTEV [FOXM1-B2]", "33.5 relative (HIV peptide = 100)"),
    ("WLPFGFILI [IL13RA2-H]", "9.6 relative (HIV peptide = 100)"),
    ("LMDLSTTPL [FOXM1-H2]", "19.7 relative (HIV peptide = 100)"),
]

Reference for the values: patent US20230105457A1
